Each entry below lists one item and its recorded EC50 of muraglitazar for recruitment value.
- SYSTEM_TESTED: T1, GST–PPARγ fusion protein (purified ligand binding domain of PPARγ)
- T1 chain: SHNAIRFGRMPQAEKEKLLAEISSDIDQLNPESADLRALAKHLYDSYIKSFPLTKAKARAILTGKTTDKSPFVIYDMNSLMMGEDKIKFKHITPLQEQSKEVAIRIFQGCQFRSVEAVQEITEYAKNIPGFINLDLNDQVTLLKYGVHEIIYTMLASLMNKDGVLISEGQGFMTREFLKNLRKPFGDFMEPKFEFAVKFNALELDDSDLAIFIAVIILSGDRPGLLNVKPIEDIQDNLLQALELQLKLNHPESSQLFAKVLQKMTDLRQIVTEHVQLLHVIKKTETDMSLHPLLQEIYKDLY
- TEST: FRET or BRET; homogeneous TR-FRET as a1, 12-concentration dose–response of muraglitazar; the EC50 is of the compound; delta ratio in % of the reference compound at 10 μM (RO4899100 for PPARα, edaglitazone for PPARγ)
- APPLIED_CONDITIONS: both partners purified
Where no end group is shown, it is not given here. The star is where a group is joined. Biotin = O=C1N[C@H]2[C@H](CS[C@H]2CCCCC(=O)*)N1; Ahx = NCCCCCC(=O)O
Supply the numeric figure in nM, leaving out any unit text.

Check out these entries, answers already filled in.
binder="{Biotin-Ahx}-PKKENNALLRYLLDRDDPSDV (source: synthetic peptide (Jerini or Biosynthan, Berlin)) [RAC3_M3 cofactor peptide (receptor-associated co-activator 3, motif 3)]" observed_measurement=39.5
binder="{Biotin-Ahx}-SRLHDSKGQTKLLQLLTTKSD (transcriptional intermediary factor 2 (TIF2), motif 1, residues 630-650; source: synthetic peptide (Jerini or Biosynthan, Berlin)) [TIF2_M1 cofactor peptide (transcriptional intermediary factor 2, motif 1)]" observed_measurement=94.3

Retrieve EC50 of muraglitazar for recruitment measured for {Biotin-Ahx}-GNTKNHPMLMNLLKDNPAQDF (thyroid hormone receptor-associated protein complex 220 kDa component (TRAP220), motif 2, residues 637-657; also called TRAP220_M2; TRAP220 M2; source: synthetic peptide (Jerini or Biosynthan, Berlin)) and print it.
6.2
